# IP per record follows
Organism: Rattus norvegicus
Test: Open TG-GATES - Regimen: Single
Format: toxicity, organism-based, Sprague-Dawley
Set-up: regimen Single, gender Male, age 6 weeks
Details: in vivo, po, 100 mg/kg, 6 h, tissue Plasma, route gavage, dose level Low
reported_endpoint: IP (mg/dL)

[
  {
    "molecule": "C[C@H](CS)C(=O)N1CCC[C@H]1C(=O)O [CAPTOPRIL]",
    "units_of_measure": "mg/dL",
    "observed": 9.6
  },
  {
    "molecule": "CCc1cc(C(N)=S)ccn1 [ETHIONAMIDE]",
    "units_of_measure": "mg/dL",
    "observed": 9.8
  },
  {
    "molecule": "O=C(O)c1cc(/N=N/c2ccc(S(=O)(=O)Nc3ccccn3)cc2)ccc1O [SULFASALAZINE]",
    "units_of_measure": "mg/dL",
    "observed": 9.7
  },
  {
    "molecule": "O=C(O)c1cn(C2CC2)c2cc(N3CCNCC3)c(F)cc2c1=O [CIPROFLOXACIN]",
    "units_of_measure": "mg/dL",
    "observed": 10.3
  },
  {
    "molecule": "Clc1ccccc1CN1CCc2sccc2C1 [TICLOPIDINE]",
    "units_of_measure": "mg/dL",
    "observed": 10.1
  }
]
